assay_comment: JHH-DIPG-1 glioma cell viability, MIPE5.0 library, CellTiter-Glo luminescence, qHTS (AID 1347067);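 note: cells exposed to compound for 48 hours before readout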
condition_summary: JHH-DIPG-1 glioma viability, CellTiter-Glo ATP luminescence
Inconclusive results are not listed. Active and inactive are the calls of the source. No cut-off is given here; in the data, nearly all actives have AC50 up to about 26 µM.
Field 'call' accepts t for active, f for inactive

Consider the following illustrative entries.
Hey, what did the test say about O=C(NCc1ccc(S(=O)(=O)c2cccc(C(F)(F)F)c2)cc1)c1cnc2[nH]ncc2c1 ? t

Hey, what did the test say about Cc1ccccc1-n1nc(-c2c(-c3ccc(F)cc3)nn3c2NC[C@@H](CO)C3)ccc1=O ? f

Hey, what did the test say about CN(C)CCN(C)C(=O)c1ccc(NC(=O)Nc2ccc(-c3nc(N4CCOCC4)c4ccn(CC(F)(F)F)c4n3)cc2)cc1 ? t

Next:
Hey, what did the test say about NC(=O)c1cccc2c(NC(CN3CCC3)c3ccc(Cl)c(C(F)(F)F)c3)ncnc12 (stereo unspecified) ? t

Hey, what did the test say about C=CC(=O)N1CCC[C@H](n2c(=O)n(-c3ccc(Oc4ccccc4)cc3)c3c(N)ncnc32)C1 ? t

Hey, what did the test say about O=C1NC(=O)/C(=C/c2ccc3c(c2)OC(F)(F)O3)S1 ? f

Hey, what did the test say about O=C(Nc1ccccc1-c1cn2c(CN3CCNCC3)csc2n1)c1cnc2ccccc2n1 ? t

----------
assay_comment: viability loss with induced miR-34 in A549 – imaging, A549 dox-inducible miR-34, nuclei and caspase counts, primary screen (AID 1347080)
condition_summary: A549 miR-34 inducible, Hoechst nuclei count, 48 h; measured here: total cells with miR-34 induction; stronger effect = lower value
The reader will find reported cell count values listed item by item below.
Answer as a number with no unit attached.

Known cell count results, listed for orientation:
cell count for CSc1ccc([C@H]2CN3CCC[C@H]3c3ccccc32)cc1 is 7680

cell count for COC(=O)C1=CO[C@@H](O)[C@@H]2C(CO)=CC[C@H]12 is 10100

cell count for Cc1cccc(-c2nn3c(c2-c2ccnc4ccc(C(N)=O)cc24)CCC3)n1 is 8480

cell count for CCCC1([C@@H](O)C/C=C/[C@H]2C(O)CC(=O)[C@@H]2CCCCCCC(=O)OC)CCC1 (stereo not given in full) is 6030

cell count for CCCCC/C=C\C/C=C\CCCC/C=C\CCCC(=O)O is 5360

cell count for CCCCC/C=C\C/C=C\CC/C=C\CCCC(=O)OC is 6030

cell count for CN(C)CCC1(c2ccc(Cl)cc2)Cc2ccccc2C(=O)O1 (stereo not given) is 7700

cell count for CCCCC[C@H](O)/C=C/[C@@H]1[C@H]2C/C(=C\CCCC(=O)O)C[C@H]2C[C@H]1O is 6140

Next:
cell count for CC(C)c1ccccc1Cc1cc(C(=O)Nc2ccc(S(=O)(=O)c3ccccc3C(C)(C)C)cc2)c(O)c(O)c1O is 2090

----------
assay_comment: viability loss with induced miR-34 in A549 – imaging, A549 dox-inducible miR-34, nuclei and caspase counts, primary screen (AID 1347080)
condition_summary: A549 miR-34 inducible, Hoechst nuclei count, 48 h; measured here: relative caspase fold change +Dox/-Dox
// boundary case: fold change equal to 0.9 maps to Not satisfied; strictly smaller maps to Satisfied

Consider the following illustrative entries.
# strict comparison: is reported fold change < 0.9? input = O=C(O)CCC/C=C/C[C@@H]1[C@@H](/C=C/[C@@H](O)COc2cccc(C(F)(F)F)c2)[C@H](O)C[C@@H]1O Not satisfied

# strict comparison: is reported fold change < 0.9? input = COc1ccc(/C=C/c2cc(Cl)cc(Cl)c2)cc1 Satisfied

Next:
# strict comparison: is reported fold change < 0.9? input = CC(=O)NCCc1c(Cc2ccccc2)[nH]c2ccccc12 Satisfied
